Biological target: Sodium-dependent dopamine transporter (Homo sapiens); note: assay procedure not described here
Sequence (Q01959 whole entry): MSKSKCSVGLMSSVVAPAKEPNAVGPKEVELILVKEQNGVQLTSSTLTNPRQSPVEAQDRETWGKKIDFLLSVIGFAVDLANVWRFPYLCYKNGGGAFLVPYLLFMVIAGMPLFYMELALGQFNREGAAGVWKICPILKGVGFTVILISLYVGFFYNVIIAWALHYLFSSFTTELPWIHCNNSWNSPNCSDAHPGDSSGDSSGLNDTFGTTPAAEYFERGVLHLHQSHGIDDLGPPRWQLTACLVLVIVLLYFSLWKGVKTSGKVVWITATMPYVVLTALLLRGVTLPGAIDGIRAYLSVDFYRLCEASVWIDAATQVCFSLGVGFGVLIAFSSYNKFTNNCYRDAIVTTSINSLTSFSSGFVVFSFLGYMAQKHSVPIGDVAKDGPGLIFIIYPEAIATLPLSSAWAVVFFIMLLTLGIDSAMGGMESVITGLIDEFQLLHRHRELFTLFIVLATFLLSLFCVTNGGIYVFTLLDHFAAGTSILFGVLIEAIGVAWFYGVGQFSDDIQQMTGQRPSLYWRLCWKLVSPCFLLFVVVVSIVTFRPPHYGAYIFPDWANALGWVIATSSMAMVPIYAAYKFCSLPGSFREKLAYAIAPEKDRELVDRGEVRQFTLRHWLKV
MEASUREMENT NAME: AC50

[[record]]
compound = "OC(CNCC(O)C1CCc2cc(F)ccc2O1)C1CCc2cc(F)ccc2O1 (centres undefined) [NEBIVOLOL]"
target_or_test_system = "Sodium-dependent dopamine transporter (Homo sapiens)"
data_value = "3.2 µM"


# lookup: Clc1ccc(C(c2ccccc2Cl)C(Cl)Cl)cc1 (centres undefined) [MITOTANE] on Sodium-dependent dopamine transporter (Homo sapiens), AC50 = > 10 µM

// AC50 (Sodium-dependent dopamine transporter (Homo sapiens)) for Brc1c(NC2=NCCN2)ccc2nccnc12 [BRIMONIDINE] = > 30 µM

====

Biological target: Alpha-2A adrenergic receptor (Homo sapiens); note: assay procedure not described here
Sequence (P08913 whole entry): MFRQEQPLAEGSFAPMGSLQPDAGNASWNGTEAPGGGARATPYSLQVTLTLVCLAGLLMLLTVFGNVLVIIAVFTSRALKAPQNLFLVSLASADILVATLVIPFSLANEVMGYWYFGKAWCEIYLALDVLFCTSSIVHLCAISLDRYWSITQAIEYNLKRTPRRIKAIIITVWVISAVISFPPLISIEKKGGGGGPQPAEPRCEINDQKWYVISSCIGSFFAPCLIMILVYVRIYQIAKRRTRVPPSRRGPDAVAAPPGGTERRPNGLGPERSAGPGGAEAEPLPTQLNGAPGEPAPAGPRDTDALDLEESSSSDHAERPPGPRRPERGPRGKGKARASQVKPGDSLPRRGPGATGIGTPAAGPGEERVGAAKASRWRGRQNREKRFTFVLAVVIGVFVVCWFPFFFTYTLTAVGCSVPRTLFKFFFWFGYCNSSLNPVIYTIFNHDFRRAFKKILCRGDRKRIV
Below: a set of entries, each annotated with reported AC50.

[[record]]
compound = "C=CCc1ccccc1OCC(O)CNC(C)C (stereo not given) [ALPRENOLOL]"
data_value = "> 0.3 µM"

[[record]]
compound = "CN(C)[C@@H](c1cccc(O)c1)[C@H]1CCCC[C@H]1O [CIRAMADOL]"
data_value = "> 30 µM"

[[record]]
compound = "CC(C)(C)NCC(O)COc1cccc2c1SCCC2 (stereo not given) [TERTATOLOL]"
data_value = "6.6 µM"

[[record]]
compound = "N[C@H](C(=O)O)[C@H](O)c1ccc(O)c(O)c1 [DROXIDOPA]"
data_value = "> 30 µM"


Let us move to another entry and its AC50.
Item: OC(CCN1CCCCC1)(c1ccccc1)c1ccccc1 [PRIDINOL] | AC50: > 30 µM

====

Molecular target: UniProt:P18825
Sequence (P18825 whole entry): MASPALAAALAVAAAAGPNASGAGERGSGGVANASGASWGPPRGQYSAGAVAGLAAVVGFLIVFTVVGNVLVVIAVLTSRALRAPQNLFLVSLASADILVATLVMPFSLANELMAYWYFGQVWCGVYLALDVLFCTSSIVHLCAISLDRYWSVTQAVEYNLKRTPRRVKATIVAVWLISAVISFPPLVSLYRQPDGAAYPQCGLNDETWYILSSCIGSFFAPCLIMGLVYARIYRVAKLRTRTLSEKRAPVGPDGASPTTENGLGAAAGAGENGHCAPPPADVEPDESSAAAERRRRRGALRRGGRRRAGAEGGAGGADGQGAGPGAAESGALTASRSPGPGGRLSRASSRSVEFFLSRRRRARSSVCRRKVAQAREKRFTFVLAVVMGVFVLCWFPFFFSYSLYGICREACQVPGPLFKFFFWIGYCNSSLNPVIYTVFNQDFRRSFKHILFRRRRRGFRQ
Type: functional
The reader will find reported AC50 values listed item by item below.

# annotated cases, reported AC50 shown
[[record]]
compound = "COc1ccc2c3c1O[C@H]1[C@@H](O)C=C[C@H]4[C@@H](C2)N(C)CC[C@@]341"
data_value = "> 10 µM"

[[record]]
compound = "CCOC(=O)[C@H](CCc1ccccc1)N[C@@H](C)C(=O)N1[C@H](C(=O)O)C[C@@H]2CCC[C@@H]21"
data_value = "> 10 µM"

[[record]]
compound = "C=CCc1ccccc1OCC(O)CNC(C)C (configuration not stated)"
data_value = "14.4 µM"

[[record]]
compound = "Cn1c(=O)c2c(ncn2CC2OCCO2)n(C)c1=O"
data_value = "> 30 µM"

[[record]]
compound = "CC(C)(C)C(=O)Oc1ccc(S(=O)(=O)Nc2ccccc2C(=O)NCC(=O)O)cc1"
data_value = "> 30 µM"


Value of AC50 reported for the compound CN1CCC(=C2c3ccccc3CCc3sccc32)CC1 is 2.1 µM

GET /value?item= CC1(C)NC(=O)N(c2ccc([N+](=O)[O-])c(C(F)(F)F)c2)C1=O [NILUTAMIDE] &field=AC50 returns > 30 µM

Entry under test: CN(C)/N=N/c1[nH]cnc1C(N)=O . Its AC50 was > 10 µM

For C/C(O)=C(\C#N)C(=O)Nc1ccc(C(F)(F)F)cc1 [TERIFLUNOMIDE] the compound record lists AC50 as > 30 µM

Reported AC50 ( C[C@]12CCC(=O)C=C1CC[C@@H]1[C@@H]2[C@@H](O)C[C@@]2(C)[C@H]1CC[C@]2(O)C(=O)CO [HYDROCORTISONE] ) = > 10 µM
